Hello, the source for this data is ChEMBL document CHEMBL6127042, in case you need it.

Assay overview: Selectivity index, ratio of CC50 for cytotoxicity against African green monkey Vero cells to MIC for antimycobacterial activity against multidrug resistant Mycobacterium tuberculosis 16833
Assay type: toxicity, cell-based
Condition parameters: read-out: Selectivity Index

Compound: O=C(O)CNC(=O)CCON=C1CCC(CN2CCN(c3nc(=O)c4cc(C(F)(F)F)cc([N+](=O)[O-])c4s3)CC2)CC1 (centres undefined)
selectivity ratio: > 496
--
Compound: CC(C)(ON=C1CCC(CN2CCN(c3nc(=O)c4cc(C(F)(F)F)cc([N+](=O)[O-])c4s3)CC2)CC1)C(=O)O (centres undefined)
selectivity ratio: > 299
--
Compound: CC(C)(C)OC(=O)CNC(=O)C(C)(C)ON=C1CCC(CN2CCN(c3nc(=O)c4cc(C(F)(F)F)cc([N+](=O)[O-])c4s3)CC2)CC1 (centres undefined)
selectivity ratio: > 1400
--
Compound: CC(C)(C)OC(=O)NCCON=C1CCC(CN2CCN(c3nc(=O)c4cc(C(F)(F)F)cc([N+](=O)[O-])c4s3)CC2)CC1 (centres undefined)
selectivity ratio: > 4080
--
Compound: CC(C)(C)OC(=O)CNC(=O)CCON=C1CCC(CN2CCN(c3nc(=O)c4cc(C(F)(F)F)cc([N+](=O)[O-])c4s3)CC2)CC1 (centres undefined)
selectivity ratio: > 1990
--
Compound: O=C(O)CON=C1CCC(CN2CCN(c3nc(=O)c4cc(C(F)(F)F)cc([N+](=O)[O-])c4s3)CC2)CC1 (centres undefined)
selectivity ratio: > 2070
--
Compound: O=C(O)CCON=C1CCC(CN2CCN(c3nc(=O)c4cc(C(F)(F)F)cc([N+](=O)[O-])c4s3)CC2)CC1 (centres undefined)
selectivity ratio: > 542
--
Compound: C[C@H](NC(=O)CON=C1CCC(CN2CCN(c3nc(=O)c4cc(C(F)(F)F)cc([N+](=O)[O-])c4s3)CC2)CC1)C(=O)OC(C)(C)C (some centres undefined)
selectivity ratio: > 682
--
Compound: O=c1nc(N2CCN(CC3CCCCC3)CC2)sc2c([N+](=O)[O-])cc(C(F)(F)F)cc12 [MACOZINONE]
selectivity ratio: > 4010
